target: BRD9 (Homo sapiens); experiment: BRD9 degradation, HiBiT-BRD9 KI HEK293 (LgBiT) cells, NanoGlo Lytic Endpoint assay (Assay Protocol 1); type: cell-based; conditions: HEK293; Assay protocol 1; BRD9 degradation; read-out: Dmax
Sequence (Q9H8M2 whole entry): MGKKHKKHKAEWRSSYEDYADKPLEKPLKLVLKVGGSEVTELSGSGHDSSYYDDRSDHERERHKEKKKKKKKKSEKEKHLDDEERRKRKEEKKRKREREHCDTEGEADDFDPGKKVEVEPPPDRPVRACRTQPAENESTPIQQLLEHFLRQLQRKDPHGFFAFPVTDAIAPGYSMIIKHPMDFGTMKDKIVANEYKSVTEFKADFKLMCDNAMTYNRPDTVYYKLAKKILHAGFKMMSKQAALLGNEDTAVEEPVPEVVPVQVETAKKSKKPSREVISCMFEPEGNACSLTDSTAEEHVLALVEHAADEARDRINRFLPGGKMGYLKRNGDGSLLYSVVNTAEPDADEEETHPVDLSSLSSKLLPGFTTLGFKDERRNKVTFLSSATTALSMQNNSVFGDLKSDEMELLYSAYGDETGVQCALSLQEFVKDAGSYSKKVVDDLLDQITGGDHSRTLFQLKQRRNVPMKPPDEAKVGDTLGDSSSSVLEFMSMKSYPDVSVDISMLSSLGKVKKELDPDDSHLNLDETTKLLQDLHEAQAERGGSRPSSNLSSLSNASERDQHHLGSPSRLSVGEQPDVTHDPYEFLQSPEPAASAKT

{"columns": ["Compound", "Dmax"],
 "data": [
  ["COc1cc(-c2cn(C)c(=O)c(C)c2C)cc(OC)c1CN1CCN(Cc2cccc3c2CCN(C(=O)/C(C#N)=C/C2CCOC2)C3C)CC1 (mixture of isomers) [Compound B94]", "> 75%"],
  ["COc1cc(-c2cn(C)c(=O)c(C)c2C)cc(OC)c1CN1CCN(Cc2cccc3c2CCN(C(=O)/C(C#N)=C/C(C)(C)C)C3(C)C)C2(CC2)C1 [Compound C9]", "70 to 75%"],
  ["COc1cc(-c2cn(C)c(=O)c(C)c2C)cc(OC)c1CN1CCC2(CC1)CN(c1cccc(C3CCCN3C(=O)C(C#N)=CC(C)(C)C)c1)C2 (single isomer, unassigned) [Compound B43]", "40 to 70%"],
  ["COc1cc(-c2cn(C)c(=O)c(C)c2C)cc(OC)c1CN1CCN(Cc2cccc3c2CCN(C(=O)/C(C#N)=C/C2(F)CC2)C3C)CC1 (mixture of isomers) [Compound B20]", "> 75%"],
  ["COc1cc(-c2cn(C)c(=O)c(C)c2C)cc(OC)c1CN1CCN(Cc2cccc3c2CCN(C(=O)/C(C#N)=C/c2cc(C)on2)C3C)CC1 (mixture of isomers) [Compound B4]", "40 to 70%"],
  ["COc1cc(-c2cn(C)c(=O)c(C)c2C)cc(OC)c1C(=O)N1CCN(Cc2cccc(C3CCCN3C(=O)/C(C#N)=C/C(C)(C)C)c2)CC1 (mixture of isomers) [Compound B46]", "> 75%"],
  ["COc1cc(-c2cn(C)c(=O)c(C)c2C)cc(OC)c1CN1CCN(C(=O)[C@@H]2CN(C(=O)/C(C#N)=C/c3nccs3)C[C@H]2c2ccccc2)CC1 [Compound B28]", "25 to 40%"],
  ["COc1cc(-c2cn(C)c(=O)c(C)c2C)ccc1OC1CCN(Cc2cccc3c2CCN(C(=O)/C(C#N)=C/C(C)(C)C)C3C)CC1 (mixture of isomers) [Compound B127]", "> 75%"],
  ["COc1cc(-c2cn(C)c(=O)c(C)c2C)cc(OC)c1CN1CCN(c2ccc(C3CCCN3C(=O)/C(C#N)=C/C(C)(C)C)cc2)CC1 (mixture of isomers) [Compound B42]", "40 to 70%"],
  ["COc1cc(-c2cn(C)c(=O)c(C)c2C)cc(OC)c1CN1CCN(CC(=O)NCCOc2cccc(C3CCCN3C(=O)/C(C#N)=C/c3nccs3)c2)CC1 (mixture of isomers) [Compound B32]", "40 to 70%"],
  ["COc1cc(-c2cn(C)c(=O)c(C)c2C)cc(OC)c1CN1C2CC1CN(Cc1cccc3c1CCN(C(=O)/C(C#N)=C/C(C)(C)C)C3C)C2 (mixture of isomers) [Compound B13]", "> 75%"],
  ["COc1cc(-c2cn(C)c(=O)c(C)c2C)cc(OC)c1CN1CCC(Oc2cccc3c2CCN(C(=O)/C(C#N)=C/C(C)(C)C)C3C)CC1 (mixture of isomers) [Compound B44]", "> 75%"],
  ["COc1cc(-c2cn(C)c(=O)c(C)c2C)cc(OC)c1CN1CCN(Cc2cccc3c2CCN(C(=O)/C(C#N)=C/C(C)(C)N2CCN(C4COC4)CC2)C3C)C2(CC2)C1 (mixture of isomers) [Compound B126]", "> 75%"],
  ["COc1cc(-c2cn(C)c(=O)c(C)c2C)cc(OC)c1CN1CCN(Cc2cccc3c2CCN(C(=O)/C(C#N)=C/C2(C)CC2)C3C)CC1 (mixture of isomers) [Compound C27]", "40 to 70%"],
  ["COc1cc(-c2cn(C)c(=O)c(C)c2C)cc(OC)c1CN(C)Cc1ccc2c(c1)CCN(C(=O)/C(C#N)=C/c1nc3ccccc3s1)C2C (mixture of isomers) [Compound B21]", "40 to 70%"],
  ["COc1cc(-c2cn(C)c(=O)c(C)c2C)cc(OC)c1CN1CCN(C(=O)c2cccc(C3CCCN3C(=O)/C(C#N)=C/c3nccs3)c2)CC1 (centres unmarked) [Compound B23]", "70 to 75%"],
  ["COc1cc(-c2cn(C)c(=O)c(C)c2C)cc(OC)c1CN(C)Cc1ccc2c(c1)C(C)N(C(=O)/C(C#N)=C/c1cccc(Br)n1)CC2 (mixture of isomers) [Compound B5]", "> 75%"],
  ["CCCC(c1ccc(C(=O)N(C)CCCCCCCCC(=O)N2CCN(Cc3c(OC)cc(-c4cn(C)c(=O)c(C)c4C)cc3OC)CC2)cc1)N(C)C(=O)/C(C#N)=C/c1nccs1 (mixture of isomers) [Compound B183]", "40 to 70%"],
  ["COc1cc(-c2cn(C)c(=O)c(C)c2C)cc(OC)c1CN1CCC2(C1)CN(c1cccc3c1CCN(C(=O)/C(C#N)=C/C(C)(C)C)C3C)C2 (mixture of isomers) [Compound B40]", "40 to 70%"],
  ["COc1cc(-c2cn(C)c(=O)c(C)c2C)cc(OC)c1CN1CCN(Cc2cccc3c2CCN(C(=O)/C(C#N)=C\\C(C)(C)CF)C3C)C2(CC2)C1 (mixture of isomers) [Compound B125]", "> 75%"]
]}
